- protocol: activators of glucose-dependent insulin secretion, dose response, cell-based, INS-1E, Gaussia luciferase, luminescence, cherry-pick, set 2 (AID 977607);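 also: 0% = median of the plate neutral control wells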
- study-conditions: INS-1E GLuc insulin secretion reporter, 2-3 h, active compounds read high; at 35 µM, 100% = signal doubled over neutral wells unless noted
In all, about 1,500 compounds went through this assay and about 460 (31%) were called active. Another 1% or so got no clear call; they are omitted. These entries were drawn from the full list. Results with a measured potency or affinity are listed apart.
measure: max activation

Prompt: What measured max activation goes with Nc1nc(N)nc(-c2ccc(Cl)cc2)n1 ?
Completion: 24.3% (inactive)

* * *

- protocol: activators of glucose-dependent insulin secretion, dose response, cell-based, INS-1E, Gaussia luciferase, luminescence, cherry-pick, set 2 (AID 977607);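 also: 0% = median of the plate neutral control wells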
- study-conditions: INS-1E GLuc insulin secretion reporter, 2-3 h, active compounds read high; at 35 µM, 100% = signal doubled over neutral wells unless noted
The whole screen tested about 1,500 compounds, of which about 460 (31%) were called active. Not shown: some 1% with an inconclusive outcome. The list is a sample of the results. Measured potencies and affinities stand elsewhere.
measure: max activation

Some molecules with recorded max activation:
Prompt: GET /values?readout=max activation&item= COC(=O)C1CCN(c2cc(Cl)nc(N)n2)CC1
Completion: 30.9% (inactive)

Prompt: Also, COc1ccc(C[C@H]2CN3C(=NC[C@@H]3Cc3ccccc3)N2CCNC(=O)CCC2CCCCC2)cc1 please.
Completion: 62.1% (inactive)

New cases:
Prompt: Recorded max activation for CC(=O)Cc1nsc(NC(=O)c2ccc(-c3cccc(Cl)c3)o2)n1 , please?
Completion: -41.3% (inactive)

Prompt: Please do the same for C=CCNC(=O)c1cc(-c2ccc3c(c2)OCO3)on1 as well.
Completion: -23.5% (inactive)

* * *

- protocol: activators of glucose-dependent insulin secretion, dose response, cell-based, INS-1E, Gaussia luciferase, luminescence, cherry-pick, set 2 (AID 977607);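 also: 0% = median of the plate neutral control wells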
- study-conditions: INS-1E GLuc insulin secretion reporter, 2-3 h, active compounds read high; at 35 µM, 100% = signal doubled over neutral wells unless noted
Among all 1,500 compounds or so, about 460 (31%) were called active. Another 1% or so got no clear call; they are omitted. These entries were drawn from the full list. Entries with a potency or affinity are not part of this list.
measure: max activation

The cases that follow already have their max activation on record.
Prompt: Dear colleague, I am looking for the recorded max activation of the following molecule: O=c1c(C(c2ccccc2)c2c(O)sc3ccccc3c2=O)c(O)sc2ccccc12
Completion: 19.2% (inactive)

Prompt: Next record, please: O=C(NCCCNc1ccnc2cc(Cl)ccc12)c1ccccc1F
Completion: -28.3% (inactive)

Prompt: Cool, now C/C=C1\COC(C(=O)NCc2ccccc2)(C(F)(F)F)C=C1C=C(C)C (stereo not given)
Completion: -29.1% (inactive)

Next:
Prompt: Param item = Cc1cccc2nc(-c3ccco3)c(Nc3ccccc3)n12 ; retrieve measured max activation.
Completion: -25.5% (inactive)

Prompt: Next molecule: CN(C)c1ccc(CC(=O)N2CCCCC2c2cc(C(=O)Nc3ccccc3Cl)no2)cc1 (stereo not given)
Completion: -48.9% (inactive)

* * *

- protocol: activators of glucose-dependent insulin secretion, dose response, cell-based, INS-1E, Gaussia luciferase, luminescence, cherry-pick, set 2 (AID 977607);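 also: 0% = median of the plate neutral control wells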
- study-conditions: INS-1E GLuc insulin secretion reporter, 2-3 h, active compounds read high; at 35 µM, 100% = signal doubled over neutral wells unless noted
In all, about 1,500 compounds went through this assay and about 460 (31%) were called active. Inconclusive results (about 1%) are left out. Not all results are given here. Measured potencies and affinities stand elsewhere.
measure: max activation

Prompt: Endpoint output: max activation of COc1ccc(/C(C)=N/Nc2ccc(C(=O)O)cc2)cc1OC . Value?
Completion: 24.3% (inactive)

Prompt: Next entry: COc1ccc(C(=O)/C=C2\NCCc3cc(OC)c(OC)cc32)cc1OC
Completion: 24% (inactive)

Prompt: Same question, Nc1nc(SCc2nc3scc(-c4ccccc4)c3c(=O)[nH]2)n[nH]1 this time
Completion: 50.6% (inactive)

Prompt: Also, O=c1c2ccccc2c(-c2ccccc2)nn1-c1ccccn1 please.
Completion: -14.4% (inactive)

Prompt: Now consider CNS(=O)(=O)c1ccc2c3c(cccc13)C(=O)N2 .
Completion: 19.7% (inactive)

* * *

Items are presented alongside their recorded max activation.
- protocol: activators of glucose-dependent insulin secretion, dose response, cell-based, INS-1E, Gaussia luciferase, luminescence, cherry-pick, set 2 (AID 977607);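 also: 0% = median of the plate neutral control wells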
- study-conditions: INS-1E GLuc insulin secretion reporter, 2-3 h, active compounds read high; at 35 µM, 100% = signal doubled over neutral wells unless noted
Out of some 1,500 compounds screened, about 460 (31%) were called active. Another 1% or so got no clear call; they are omitted. Not all results are given here. Results with a measured potency or affinity are listed apart.

Prompt: Requested field: max activation. Item: Clc1ccc(OCCn2ccnc2)c(Cl)c1
Completion: 53.2% (inactive)

Prompt: Also CSc1ccc(C(=O)C2CCCN(C(=O)c3ccc4c(c3)no[n+]4[O-])C2)cc1 (stereo not drawn) ?
Completion: -36.5% (inactive)

Prompt: Cool, now Cc1cc(OCC(O)CNC(C)c2ccccc2)ccc1C(C)C (stereo not drawn)
Completion: 327% (inactive)

Prompt: Thanks! And COc1ccc(CC(=O)N2CCc3cc(OC)c(OC)cc3C2)cc1 ?
Completion: 20% (inactive)

Continuing:
Prompt: Could you share which max activation value was measured for CCN(c1ccccc1)S(=O)(=O)c1ccc(OC)c(OC)c1 ?
Completion: 12.1% (inactive)

Prompt: Then what about the molecule C=CCc1cccc(/C=N/NC(=O)CCC(=O)Nc2ccc(C)cc2)c1O ?
Completion: -34.3% (inactive)

* * *

- protocol: activators of glucose-dependent insulin secretion, dose response, cell-based, INS-1E, Gaussia luciferase, luminescence, cherry-pick, set 2 (AID 977607);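 also: 0% = median of the plate neutral control wells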
- study-conditions: INS-1E GLuc insulin secretion reporter, 2-3 h, active compounds read high; at 35 µM, 100% = signal doubled over neutral wells unless noted
The campaign covered roughly 1,500 compounds. About 460 (31%) were called active. Not shown: some 1% with an inconclusive outcome. Not all results are given here. Results with a measured potency or affinity are listed apart.
Entries and their max activation

Prompt: Return reported max activation; argument: COc1cccc(-c2nnn(CC(=O)O)n2)c1
Completion: -16% (inactive)

Prompt: // same read-out, input: Nc1[nH]c(C(=O)c2ccccc2)c(-c2ccncc2)c1C(=O)NCc1cccc2ccccc12
Completion: -29.2% (inactive)

Prompt: Consider next the compound O=S(=O)(c1ccc(=S)[nH]c1)N1CCCCCC1 in the same way.
Completion: 19.7% (inactive)

Prompt: Likewise for COc1ccc(CN(C)C(=O)COc2cccc(-n3cnnn3)c2)cc1OC ?
Completion: 25.6% (inactive)

* * *

Each entry below lists one item and its recorded max activation value.
- protocol: activators of glucose-dependent insulin secretion, dose response, cell-based, INS-1E, Gaussia luciferase, luminescence, cherry-pick, set 2 (AID 977607);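 also: 0% = median of the plate neutral control wells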
- study-conditions: INS-1E GLuc insulin secretion reporter, 2-3 h, active compounds read high; at 35 µM, 100% = signal doubled over neutral wells unless noted
Out of some 1,500 compounds screened, about 460 (31%) were called active. About 1% were inconclusive and are not listed. Not all results are given here. Results with a measured potency or affinity are listed apart.

Prompt: Name the reported max activation value associated with the molecule Cc1ccccc1S(=O)(=O)N1CC(=O)N2[C@@H](CO)[C@H](c3ccc(C#CCC4CCCC4)cc3)[C@@H]2C1
Completion: 276% [at 35 µM] (inactive)

As a next step, examine the molecule that follows.
Prompt: GET /values?readout=max activation&item= COc1cc(C(F)(F)F)c(C(=O)NCc2cccc(Cl)c2)cn1
Completion: -11.8% (inactive)

* * *

Quick reference for max activation among some compounds
- protocol: activators of glucose-dependent insulin secretion, dose response, cell-based, INS-1E, Gaussia luciferase, luminescence, cherry-pick, set 2 (AID 977607);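 also: 0% = median of the plate neutral control wells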
- study-conditions: INS-1E GLuc insulin secretion reporter, 2-3 h, active compounds read high; at 35 µM, 100% = signal doubled over neutral wells unless noted
Among all 1,500 compounds or so, about 460 (31%) were called active. Not shown: some 1% with an inconclusive outcome. Only a sample is shown. Results with a measured potency or affinity are listed apart.

Prompt: Any idea what its max activation is? The compound is CC1(C)N=C(c2ccccc2)C(c2ccccc2)=N1
Completion: 33.2% (inactive)

Attention now turns to another entry.
Prompt: Requested field: max activation. Item: CN1CCCCCC1C(=O)N1CCC(N2CCC(C(=O)N3CCOCC3)CC2)CC1 (configuration not stated)
Completion: -16.3% (inactive)

* * *

// reported max activation per item
- protocol: activators of glucose-dependent insulin secretion, dose response, cell-based, INS-1E, Gaussia luciferase, luminescence, cherry-pick, set 2 (AID 977607);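 also: 0% = median of the plate neutral control wells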
- study-conditions: INS-1E GLuc insulin secretion reporter, 2-3 h, active compounds read high; at 35 µM, 100% = signal doubled over neutral wells unless noted
Among all 1,500 compounds or so, about 460 (31%) were called active. Inconclusive results (about 1%) are left out. Only a sample is shown. Potency and affinity values are given separately.

Completed entries (count: 3):
Prompt: Record request: max activation value, item Cc1ccc(NC(=O)c2cc(-c3ccccc3O)n[nH]2)cc1C
Completion: 17.3% (inactive)

Prompt: Please give the result for COc1ccc(CN(C)C(=O)c2cc(-c3ccc(OC)c(OC)c3)nc3ccccc23)c(OC)c1 too.
Completion: -23.5% (inactive)

Prompt: Subsequent entry: Cc1cc(C)cc(Cn2c3ccc(NC(=S)NCc4ccccc4F)cc3c(=O)n2C)c1
Completion: -51.1% (inactive)

***
Prompt: What value of measured max activation is listed for Cc1ccc2c(c1)C=CC(C#N)N2C(=O)c1ccccc1 (stereo unspecified) ?
Completion: 36.1% (inactive)

Prompt: What about CCOc1ccc2oc(=O)cc(CN3CCOCC3)c2c1 ?
Completion: 12.7% (inactive)
